The origin of these recorded values is patent US20040018971A1.

- experimental.target: HLA-A*6801 (human)
- assay.info: inhibition of 125I probe peptide binding to purified HLA
Where no end group is shown, it is not given here. [ ]: non-standard residue; d: D form. Abu = CC[C@H](N)C(=O)O
We begin with a simple list: items and their reported IC50.
Supply the numeric figure in nM, leaving out any unit text.

# example entries with known answers
binder	readout.units	measured.result
TV[Abu]AGG[Abu]AK (synthetic analog peptide; also called TVBAGGBAK) [Her2/neu.218.B3B7K9]	nM	7.3
BVNBSQFLK (B at positions 1 and 4 = alpha-amino butyric acid (in place of cysteine), synthetic analog peptide; also called BVNBSQFLK) [Her2/neu.528.B1B4K9]	nM	15
CVNCSQFLR (synthetic peptide) [Her2/neu.528]	nM	18

Sure, the documented IC50 for HVVPWDQLFR (synthetic analog peptide) [Her2/neu.478.V2] is 3.6
